System: MCF-7 cells
Assay: Total cellular platinum uptake (ICP OES)
Assay type: cell-based, human
Details: MCF-7, 4 h exposure, 10 µM
Please mark TRUE if the recorded Total Cellular Platinum Uptake in MCF-7 Cells (± SD) is equal to or greater than 40 ng Pt/10^6 Cells, and FALSE if it falls below.

compound	assayed-target	class-label
Cn1c([N+](=O)[O-])cc[n+]1[Pt@SP2-2]([Cl])([Cl])[n+]1ccc([N+](=O)[O-])n1C	MCF-7 cells	TRUE
Cn1c([N+](=O)[O-])cc[n+]1[Pt@SP3-2]([Cl])([Cl])[n+]1ccc([N+](=O)[O-])n1C	MCF-7 cells	TRUE

API: above_or_equal(metric=Total Cellular Platinum Uptake in MCF-7 Cells (± SD), cutoff=40 ng Pt/10^6 Cells) for item N.N.[Cl][Pt][Cl] [Cisplatin, cisplatin, reference compound]
TRUE

Entry `Cn1cc([N+](=O)[O-])c[n+]1[Pt@SP2-2]([Cl])([Cl])[n+]1cc([N+](=O)[O-])cn1C` please
FALSE

Note, next up: `COC(=O)c1c([N+](=O)[O-])c[n+]([Pt@SP3-2]([Cl])([Cl])[n+]2cc([N+](=O)[O-])c(C(=O)OC)n2C)n1C`
TRUE

Queued: `Cc1c([N+](=O)[O-])cn(C)[n+]1[Pt@SP2-2]([Cl])([Cl])[n+]1c(C)c([N+](=O)[O-])cn1C`
FALSE

Another compound to look at: `Cn1cc([N+](=O)[O-])c[n+]1[Pt@SP3-2]([Cl])([Cl])[n+]1cc([N+](=O)[O-])cn1C`
FALSE
